# Stated Conditions: in isobutanol, 293.14 K
Value Type: solubility (mole fraction)
Just the number, please, no unit after it.

Query block: Could you tell me which solubility (mole fraction) is on file for `C[C@H]1[C@H](OC(=O)CCC(=O)O)O[C@@H]2O[C@@]3(C)CC[C@H]4[C@H](C)CC[C@@H]1[C@@]24OO3` ?
Result block: 0.00912

* * *

# Stated Conditions: in n-butanol, 298.1 K
Value Type: solubility (mole fraction)
Write the number on its own, no unit after it.

Query block: # get_value(readout='solubility (mole fraction)', item= `C[C@H]1[C@H](OC(=O)CCC(=O)O)O[C@@H]2O[C@@]3(C)CC[C@H]4[C@H](C)CC[C@@H]1[C@@]24OO3` )
Result block: 0.0143
